molecular target: HTLV-1 integrase (Human T-cell leukemia virus 1, UniProt P03362); construct: Full-length wild type HTLV-1 IN was recombinantly expressed, purified, and characterized; SUMO (pET28a-SUMO fusion) (N); made in house; experiment: In vitro HTLV-1 integrase strand transfer assay (concerted integration, agarose gel densitometry); format: biochemical; conditions: HTLV-1 IN 0.8 μM, concerted integration product
Sequence (P03362 1168-1462): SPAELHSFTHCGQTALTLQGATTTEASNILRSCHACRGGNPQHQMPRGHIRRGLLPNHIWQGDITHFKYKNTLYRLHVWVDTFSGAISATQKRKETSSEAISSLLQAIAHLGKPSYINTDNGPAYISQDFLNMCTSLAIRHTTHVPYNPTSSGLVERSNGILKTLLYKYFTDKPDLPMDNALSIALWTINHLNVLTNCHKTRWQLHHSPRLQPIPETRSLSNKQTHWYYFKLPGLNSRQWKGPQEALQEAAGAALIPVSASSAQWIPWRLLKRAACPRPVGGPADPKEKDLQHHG
Returns one of 1.0 or 0.0; 1.0 when Inhibition of enzymatic activity IC95 is >= 2 µM.

Please review the following examples before continuing.
{"MOL_SMILES": "O=C(NCc1c(F)cc(F)cc1F)c1cn2c(c(O)c1=O)C(=O)N1[C@H]3CC[C@H](C3)O[C@@H]1C2", "TEST_TARGET": "HTLV-1 integrase (Human T-cell leukemia virus 1, UniProt P03362)", "CLASS_ASSIGNMENT": 1.0}
{"MOL_SMILES": "Cn1c(N2CCCCS2(=O)=O)nc(C(=O)NCc2ccc(F)cc2)c(O)c1=O", "TEST_TARGET": "HTLV-1 integrase (Human T-cell leukemia virus 1, UniProt P03362)", "CLASS_ASSIGNMENT": 1.0}

Please check the record COc1cc2c(cc1Cc1cccc(Cl)c1F)c(=O)c(C(=O)O)cn2[C@H](CO)C(C)C and state if its Inhibition of enzymatic activity IC95 is at or above 2 µM.
0.0

Quick check, Inhibition of enzymatic activity IC95 >= 2 µM? Cc1nnc(C(=O)NC(C)(C)c2nc(C(=O)NCc3ccc(F)cc3)c(O)c(=O)n2C)o1
1.0

Could you please find out whether C[C@@H]1CCO[C@H]2Cn3cc(C(=O)NCc4ccc(F)cc4F)c(=O)c(O)c3C(=O)N12 has Inhibition of enzymatic activity IC95 that meets 2 µM or exceeds it?
1.0
